Reference for the values: the supplement of paper PMC6522484

# Tested on: HCT116
# protocol_summary: cell viability (CellTiter-Glo) relative to plate median (fraction of plate median); higher = more viable cells
# measurement_setup: 5 µM; treatment time 24 h; reporter: TCF4/Wnt
// reported cell viability for each item listed
Please give the numeric answer without any surrounding text.

{"columns": ["molecule", "cell viability"],
 "data": [
  ["COc1ccc(-c2cc(=O)c3ccccc3o2)cc1", 0.983],
  ["CC1(C)C(=O)CC[C@@]2(C)C1C[C@@H](O)[C@@]1(C)C3=CC(=O)O[C@@H](c4ccoc4)[C@]3(C)CCC21 (stereo not given in full)", 1.06],
  ["CC1CCC(C(C)C)C(O)C1 (stereo not given)", 1.04],
  ["CC(=O)O[C@]1(C(C)=O)CC[C@H]2[C@@H]3C=C(Cl)C4=CC(=O)CC[C@]4(C)[C@H]3CC[C@@]21C", 0.972]
]}

INPUT: Short answer please: cell viability, HCT116, entry Cn1c([N+](=O)[O-])cnc1COC(N)=O
OUTPUT: 1.07

----------
cell viability listing for selected compounds.
# System: SW480
# protocol_summary: cell viability (CellTiter-Glo) relative to plate median (fraction of plate median); higher = more viable cells
# measurement_setup: 5 µM; treatment time 24 h; reporter: 7TFP
Lab note: jot the number down without any unit.

Example compounds with recorded cell viability:
{"columns": ["compound", "property_measured", "assay_result"],
 "data": [
  ["Oc1ccc([C@H]2Oc3cc(O)cc(O)c3C[C@H]2O)cc1", "cell viability", 0.974],
  ["CC1(C)C[C@@H]2C(=O)CC[C@H]3O[C@]3(C)CC[C@H]21", "cell viability", 1.02],
  ["Oc1cc2c(cc1O)C(c1ccccc1)CNCC2 (stereo unspecified)", "cell viability", 0.934],
  ["O=C(/C=C/c1ccccc1)c1ccc(O)cc1O", "cell viability", 0.99],
  ["CC(N)C(=O)OC(C)(C)Cc1ccc(Cl)cc1 (stereo unspecified)", "cell viability", 1.02]
]}

INPUT: Fill in the blank: the reported cell viability of C[C@]12CC[C@@H]3c4ccc(O)cc4CC[C@H]3[C@@H]1CCC2=O is ____.
OUTPUT: 0.995

INPUT: Consider next the compound CC(C(=O)O)c1cccc(C(=O)c2ccccc2)c1 (stereo unspecified) in the same way.
OUTPUT: 1.04

INPUT: Can you check CC(=O)O[C@H]1CC[C@@]2(C)[C@H](CC[C@@H]3[C@@H]2CC[C@]2(C)[C@@H]4[C@H](C[C@@H]32)O[C@]2(CC[C@@H](C)CO2)[C@H]4C)C1 next?
OUTPUT: 0.977

INPUT: Another: Cn1c(=O)[nH]c(=O)c2[nH]cnc21
OUTPUT: 0.967

INPUT: Okay, and CN(C)CCCN1c2ccccc2CCc2ccc(Cl)cc21 ?
OUTPUT: 1.06

INPUT: What about this compound? COc1c(OC)c2occc2c2oc(=O)ccc12
OUTPUT: 1.02

----------
# Test system: HCT116
# protocol_summary: cell viability (CellTiter-Glo) relative to plate median (fraction of plate median); higher = more viable cells
# measurement_setup: 5 µM; treatment time 24 h; reporter: TCF4/Wnt
Values of cell viability strictly less than 1 map to t, and values of at least 1 map to f.

Answered examples (5):
{"columns": ["compound", "category"],
 "data": [
  ["COc1c2c(cc3occ(-c4ccc5c(c4)OCO5)c(=O)c13)OC(C)(C)C=C2", "t"],
  ["CC(=O)c1ccc[nH]1", "f"],
  ["Cc1cccc(C)c1NC(=O)C1CCCCN1C (stereo not given)", "t"],
  ["CN(C/C=C/C#CC(C)(C)C)Cc1cccc2ccccc12", "f"],
  ["COc1cc2c(cc1-c1coc3c4c(c(OC)cc3c1=O)OC(C)(C)C=C4)OCO2", "f"]
]}

INPUT: Is it true that cell viability reported for CCCCN1CCCCC1C(=O)Nc1c(C)cccc1C (stereo not given) is less than 1?
OUTPUT: t

INPUT: Same question, C[C@@H]1CC[C@H]2C(C(=O)O)=C[C@@H]3[C@@H](O)C(C)(C)C[C@@]132 this time
OUTPUT: t

INPUT: Entry COc1ccc(-c2cc(=O)c3c(O)c(OC)c(OC)c(OC)c3o2)cc1OC please
OUTPUT: f

INPUT: What do you get for NC(Cn1ccc(=O)c(O)c1)C(=O)O (stereo not given) ?
OUTPUT: t

INPUT: Next compound: COc1c(-c2ccccc2)oc2c(ccc3occc32)c1=O
OUTPUT: f

INPUT: Note, next up: CN(C)[C@@H]1C(O)=C(C(N)=O)C(=O)[C@@]2(O)C(O)=C3C(=O)c4c(O)ccc(Cl)c4[C@@](C)(O)[C@H]3C[C@@H]12
OUTPUT: f

INPUT: Next entry: CCOC(=O)[C@H](CCc1ccccc1)N[C@@H](C)C(=O)N1[C@H](C(=O)O)C[C@@H]2CCC[C@@H]21
OUTPUT: f

INPUT: Next compound: C1N2CN3CN1CN(C2)C3
OUTPUT: f

----------
We begin with a simple list: items and their reported cell viability.
# Tested on: HCT116
# protocol_summary: cell viability (CellTiter-Glo) relative to plate median (fraction of plate median); higher = more viable cells
# measurement_setup: 5 µM; treatment time 24 h; reporter: TCF4/Wnt
// return just the number, without any unit appended

{"columns": ["compound", "cell viability"],
 "data": [
  ["CC1(C)S[C@@H]2[C@H](NC(=O)[C@H](C(=O)O)c3ccsc3)C(=O)N2[C@H]1C(=O)O", 1.04],
  ["C[C@]12CCC[C@H](O1)c1c(cc3c(c1O)C(=O)c1c(O)cc(O)cc1C3=O)O2 [Averufin (Isoform A, Compound ID 7507)]", 1.05],
  ["Cc1c(N(C)CS(=O)(=O)O)c(=O)n(-c2ccccc2)n1C", 0.968],
  ["COc1ccc(C2CNC(=O)C2)cc1OC1CCCC1 (configuration not stated)", 0.989],
  ["CC1(C)C2CC(=O)O[C@@]3(C)C4=CC(=O)O[C@@H](c5ccoc5)[C@]4(C)CCC3[C@@]2(C)C=C[C@H]1O (some centres not stated)", 1.03]
]}

INPUT: May I ask what cell viability has been recorded for C[C@@H]1NC(=O)[C@@H](N)CNC(=O)[C@H](C2CCNC(=N)N2)NC(=O)/C(=C/NC(N)=O)NC(=O)[C@H](CNC(=O)CC(N)CCCN)NC1=O.N=C1NCC[C@H]([C@@H]2NC(=O)/C(=C/NC(N)=O)NC(=O)[C@H](CNC(=O)C[C@@H](N)CCCN)NC(=O)[C@H](CO)NC(=O)[C@@H](N)CNC2=O)N1 ?
OUTPUT: 0.993

INPUT: // query: O=C(O)/C=C/c1ccc(O)c(O)c1
OUTPUT: 1.05

----------
# Tested on: DLD1
# protocol_summary: cell viability (CellTiter-Glo) relative to plate median (fraction of plate median); higher = more viable cells
# measurement_setup: 10 µM; treatment time 24 h; reporter: TCF4/Wnt
Quick list: cell viability per entry.

{"columns": ["compound", "cell viability"],
 "data": [
  ["S=C(NCc1ccc2c(c1)OCO2)N1CCN(c2ncnc3c2oc2ccccc23)CC1", 1.03]
]}

INPUT: Reported cell viability for DLD1, given O=C(NCc1ccccc1)c1csc(Nc2ccncn2)n1 ?
OUTPUT: 1.13

INPUT: Subsequent entry: CN(C)Cc1cccc(N/C(=C2\C(=O)Nc3cc(C(N)=O)ccc32)c2ccccc2)c1
OUTPUT: 1.09

INPUT: Also COc1ccc2c3n(c(=NC(=O)c4cccnc4)nc2c1OC)CCN3 ?
OUTPUT: 0.944

INPUT: Try this compound too: COCC(=O)NC/C=C/c1ccc2ncnc(Nc3ccc(Oc4ccc(C)nc4)c(C)c3)c2c1
OUTPUT: 1.03

INPUT: Continue with CN1CCN(c2ccc3nc(-c4c(N)c5c(F)cccc5[nH]c4=O)[nH]c3c2)CC1 [Dovitinib Dilactic acid (TKI258 Dilactic acid)]
OUTPUT: 0.956

INPUT: Also need CN1CCN(C2CCN(C(=O)Nc3cc(Oc4ccc(NC(=O)C5(C(=O)Nc6ccc(F)cc6)CC5)c(F)c4)ccn3)CC2)CC1 [Golvatinib (E7050)] , thanks.
OUTPUT: 0.904

INPUT: Same again, this time with Cc1ccc(F)c(NC(=O)Nc2ccc(-c3cccc4[nH]nc(N)c34)cc2)c1
OUTPUT: 0.948

----------
# System: DLD1
# protocol_summary: cell viability (CellTiter-Glo) relative to plate median (fraction of plate median); higher = more viable cells
# measurement_setup: 10 µM; treatment time 24 h; reporter: 7TFP
cell viability: recorded values
Reply with just the number.

{"columns": ["compound", "target_of_assay", "assay_result"],
 "data": [
  ["COc1cc(Nc2c(C#N)cnc3cc(OCCCN4CCN(C)CC4)c(OC)cc23)c(Cl)cc1Cl [Bosutinib (SKI-606)]", "DLD1", 0.869]
]}

INPUT: API: value(readout=cell viability, system=DLD1) for record O=C(NC[C@H](O)CO)c1ccncc1Nc1ccc(I)cc1F
OUTPUT: 1.15

INPUT: Now give it for Nc1nc(N)c2nc(-c3cccc(O)c3)cnc2n1 too.
OUTPUT: 1.09

INPUT: Moving on to the next compound: N#C/C(=C\c1ccc(O)c(O)c1)C(=O)NCc1ccccc1
OUTPUT: 0.874

INPUT: Param item: Cc1cc2c(F)c(Oc3ncnn4cc(OC[C@@H](C)OC(=O)[C@H](C)N)c(C)c34)ccc2[nH]1
OUTPUT: 1.06

INPUT: Do the same for CNC(=O)CN1CCC(Oc2cc3c(Nc4cccc(Cl)c4F)ncnc3cc2OC)CC1 please
OUTPUT: 1

INPUT: Entry CCOc1ccn(-c2ccc(F)cc2)c(=O)c1C(=O)Nc1ccc(Oc2ccnc(N)c2Cl)c(F)c1 please
OUTPUT: 0.97
